Target: T1, wild type full length EGFR purified from A431 cells (human, UniProt P00533 25-1210)
T1 construct: mature; Bought; coated on ELISA wells; also called full length EGFR receptor antigen; Sigma E3641
Test: competition ELISA, competitor Ab-3
Design: concentration or dose not given beside the values
Would you mind telling me the reported % inhibition of each entry?
Put your answer as a value accompanied by its unit after it.

Below: 2 binders and their reported % inhibition.
antibody 992 (antibody, human IgG1, kappa, V domains shown, Chimeric mouse/human IgG1 kappa; the VL entry includes the human kappa constant region) VH: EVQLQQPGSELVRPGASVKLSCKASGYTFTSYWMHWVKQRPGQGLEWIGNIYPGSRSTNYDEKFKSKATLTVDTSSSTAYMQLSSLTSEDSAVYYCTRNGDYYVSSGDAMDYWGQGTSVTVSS VL: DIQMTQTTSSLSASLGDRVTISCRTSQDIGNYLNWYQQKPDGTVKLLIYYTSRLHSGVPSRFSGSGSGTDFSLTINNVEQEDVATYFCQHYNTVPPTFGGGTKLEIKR : -21%
antibody 1208 (antibody, human IgG1, kappa, V domains shown, Chimeric IgG1 kappa; also called clone 1208) VH: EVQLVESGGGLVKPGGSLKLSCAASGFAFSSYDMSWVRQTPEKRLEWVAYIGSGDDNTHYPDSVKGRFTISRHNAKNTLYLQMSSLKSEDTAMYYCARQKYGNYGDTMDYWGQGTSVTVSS VL: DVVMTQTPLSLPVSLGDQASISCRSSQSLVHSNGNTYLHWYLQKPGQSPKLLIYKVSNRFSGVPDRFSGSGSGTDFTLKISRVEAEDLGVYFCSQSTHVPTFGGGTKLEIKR : -10%

% inhibition reading for antibody 1024 (antibody, human IgG1, kappa, V domains shown, Chimeric IgG1 kappa) VH: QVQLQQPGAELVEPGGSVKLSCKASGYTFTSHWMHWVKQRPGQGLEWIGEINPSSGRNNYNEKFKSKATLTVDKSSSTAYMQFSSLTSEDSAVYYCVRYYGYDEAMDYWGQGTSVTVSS VL: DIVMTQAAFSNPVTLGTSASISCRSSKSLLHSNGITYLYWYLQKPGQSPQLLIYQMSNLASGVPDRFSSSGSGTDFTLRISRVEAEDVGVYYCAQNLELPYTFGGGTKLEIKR : 11%
